# assay comment: Pharmacokinetics of Compound A, phase I dose-escalation part (plasma)
# Format: in vivo, human
# conditions used: human, plasma, oral, 10 mg, C1D1, 10 mg BID (n = 3), median

# compound, Tmax
data = [
    ("C=CCN1CC(=O)N2[C@@H](Cc3ccc(O)cc3F)C(=O)N(Cc3cccc(N4CC(N5CCN(CC)CC5)C4)n3)C[C@@H]2N1C(=O)NCc1ccccc1 [Compound A]", "2 h"),
]

---

# assay comment: Pharmacokinetics of Compound A, phase I dose-escalation part (plasma)
# Assay type: in vivo, human
# conditions used: human, plasma, oral, 160 mg, C1D8, 160 mg BID (n = 2), both patients
# Experimental: In the treatment phase, Compound A (an oral formulation containing Compound A) is administered to the subjects of administration in one cycle of 28 days. […] In the dose-escalation part, blood was collected from the subjects of administration according to the schedule shown in Table 5, and the pharmacokinetics of Compound A was evaluated. […]

# molecule, output unit, Tmax
rows = [
    ("C=CCN1CC(=O)N2[C@@H](Cc3ccc(O)cc3F)C(=O)N(Cc3cccc(N4CC(N5CCN(CC)CC5)C4)n3)C[C@@H]2N1C(=O)NCc1ccccc1 [Compound A]", "h", 1),
]

---

# assay comment: Pharmacokinetics of Compound A, phase I dose-escalation part (plasma)
# Type: in vivo, human
# conditions used: human, plasma, oral, 100 mg, C1D1, 100 mg BID (n = 6), median
# Experimental: In the treatment phase, Compound A (an oral formulation containing Compound A) is administered to the subjects of administration in one cycle of 28 days. […] In the dose-escalation part, blood was collected from the subjects of administration according to the schedule shown in Table 5, and the pharmacokinetics of Compound A was evaluated. […]
assay endpoint: Tmax (min)

# structure smiles string, measured value
measured = [
    ("C=CCN1CC(=O)N2[C@@H](Cc3ccc(O)cc3F)C(=O)N(Cc3cccc(N4CC(N5CCN(CC)CC5)C4)n3)C[C@@H]2N1C(=O)NCc1ccccc1", 30),
]

---

# assay comment: Pharmacokinetics of Compound A, phase I dose-escalation part (plasma)
# Format: in vivo, human
# conditions used: human, plasma, oral, 15 mg, C1D8, 15 mg BID (n = 4), geometric mean; read-out: Effective t1/2 (converted)
assay endpoint: half-life (h)

# structure smiles string, measured value
data = [
    ("C=CCN1CC(=O)N2[C@@H](Cc3ccc(O)cc3F)C(=O)N(Cc3cccc(N4CC(N5CCN(CC)CC5)C4)n3)C[C@@H]2N1C(=O)NCc1ccccc1", 7.1),
]

---

# assay comment: Pharmacokinetics of Compound A, phase I dose-escalation part (plasma)
# Format: in vivo, human
# conditions used: human, plasma, oral, 160 mg BID, C1D8; read-out: lowest value of AUC(0-tau),ss of the subjects in which vomiting could not be suppressed even after the 5-HT3 receptor antagonist
assay endpoint: AUC (ng·h/mL)

# structure smiles string, assay endpoint, measured value
measured = [
    ("C=CCN1CC(=O)N2[C@@H](Cc3ccc(O)cc3F)C(=O)N(Cc3cccc(N4CC(N5CCN(CC)CC5)C4)n3)C[C@@H]2N1C(=O)NCc1ccccc1", "AUC", 9060),
]

---

# assay comment: Pharmacokinetics of Compound A, phase I dose-escalation part (plasma)
# Assay type: in vivo, human
# conditions used: human, plasma, oral, 160 mg, C1D8, 160 mg BID (n = 2), both patients; read-out: C max, ss
assay endpoint: Cmax (µg/mL)

# structure smiles string, assay endpoint, measured value
records = [
    ("C=CCN1CC(=O)N2[C@@H](Cc3ccc(O)cc3F)C(=O)N(Cc3cccc(N4CC(N5CCN(CC)CC5)C4)n3)C[C@@H]2N1C(=O)NCc1ccccc1", "Cmax", 2.98),
]

---

# assay comment: Pharmacokinetics of Compound A, phase I dose-escalation part (plasma)
# Assay type: in vivo, human
# conditions used: human, plasma, oral, 10 mg, C1D1, 10 mg BID (n = 3), geometric mean; read-out: AUC(0-12 h)
# Description: In the treatment phase, Compound A (an oral formulation containing Compound A) is administered to the subjects of administration in one cycle of 28 days. […] In the dose-escalation part, blood was collected from the subjects of administration according to the schedule shown in Table 5, and the pharmacokinetics of Compound A was evaluated. […]

# structure smiles string, AUC(0-t), ng·h/mL
data = [
    ("C=CCN1CC(=O)N2[C@@H](Cc3ccc(O)cc3F)C(=O)N(Cc3cccc(N4CC(N5CCN(CC)CC5)C4)n3)C[C@@H]2N1C(=O)NCc1ccccc1", 131),
]

---

# assay comment: Pharmacokinetics of Compound A, phase I dose-escalation part (plasma)
# Format: in vivo, human
# conditions used: human, plasma, oral, 15 mg, C1D8, 15 mg BID (n = 4), median

# structure smiles string, Tmax / min
records = [
    ("C=CCN1CC(=O)N2[C@@H](Cc3ccc(O)cc3F)C(=O)N(Cc3cccc(N4CC(N5CCN(CC)CC5)C4)n3)C[C@@H]2N1C(=O)NCc1ccccc1", 45),
]

Just for reference, patent US20250222003A1 is where these values come from.
